B1: CAMK2D (parent)
chain: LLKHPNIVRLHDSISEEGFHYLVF

variants of: B1; test: protein stability index of a GFP-peptide fusion (GPS, HEK-293T) (PSI 1-6); higher = more stable; conditions: c terminus: a fixed tail appended;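 note: lentivirally expressed fusions sorted by FACS into six bins by GFP to DsRed ratio, PSI derived from sequencing read proportions per bin multiplied by bin number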
Think of 2 as a floor: if protein stability index stands on it or above, it is rule met; beneath it, rule not met.

>  <sequenceVariant>
H4K

>  <label>
rule met

$$$$
>  <sequenceVariant>
E17T

>  <label>
rule met

$$$$
>  <sequenceVariant>
V23K

>  <label>
rule not met

$$$$
>  <sequenceVariant>
F24R

>  <label>
rule met

$$$$
>  <sequenceVariant>
Y21K

>  <label>
rule not met

$$$$
>  <sequenceVariant>
F19W

>  <label>
rule met

$$$$
>  <sequenceVariant>
I14Q

>  <label>
rule not met

$$$$
>  <sequenceVariant>
S13H

>  <label>
rule met

$$$$
>  <sequenceVariant>
H11V

>  <label>
rule not met

$$$$
>  <sequenceVariant>
L22N

>  <label>
rule not met

$$$$
>  <sequenceVariant>
F19P

>  <label>
rule not met

$$$$
>  <sequenceVariant>
I14P

>  <label>
rule met

$$$$
>  <sequenceVariant>
L2S

>  <label>
rule not met

$$$$
>  <sequenceVariant>
E16F

>  <label>
rule met

$$$$
>  <sequenceVariant>
E16C

>  <label>
rule met

$$$$
>  <sequenceVariant>
H20C

>  <label>
rule met

$$$$
>  <sequenceVariant>
Y21R

>  <label>
rule met

$$$$
>  <sequenceVariant>
P5W

>  <label>
rule met

$$$$
>  <sequenceVariant>
P5Y

>  <label>
rule not met

$$$$
>  <sequenceVariant>
L22Q

>  <label>
rule not met

$$$$
>  <sequenceVariant>
S15N

>  <label>
rule met

$$$$
